Assay: A CellTox Green Cytotoxicity Assay to monitor cytotoxicity in HepG2 cells - 0 hour (AID 1224882); also: nearly all actives have a fitted effect of over 35% in size
Conditions: CellTox Green fluorescence; series mostly up to 76.8 µM
The source made the active and inactive calls. Calls follow the shape of the dose curve; as a rule, active = well fitted activation curve with a large enough effect in the repeat runs; inconclusive = weak or mixed curves; inactive = flat fitted curve, though single readings scatter.

Molecule: CC(Cc1ccc(O)cc1)NCC(O)c1cc(O)cc(O)c1 (stereo not drawn)
outcome: inactive

Molecule: CCOC(=O)Cc1ccccc1
outcome: inactive

Molecule: C[C@]12C/C(=C/O)C(=O)C[C@@H]1CC[C@@H]1[C@@H]2CC[C@@]2(C)[C@H]1CC[C@]2(C)O
outcome: inactive

###

Test: A CellTox Green Cytotoxicity Assay to monitor cytotoxicity in HepG2 cells - 0 hour (AID 1224882); also: nearly all actives have a fitted effect of over 35% in size
Conditions: CellTox Green fluorescence; series mostly up to 76.8 µM
Activity calls are given as the source filed them. Calls follow the shape of the dose curve; as a rule, active = well fitted activation curve with a large enough effect in the repeat runs; inconclusive = weak or mixed curves; inactive = flat fitted curve, though single readings scatter.

Molecule: [F][Sn]([c]1ccccc1)([c]1ccccc1)[c]1ccccc1
outcome: inactive
//
Molecule: C#CCC1=C(C)C(OC(=O)C2C(C=C(C)C)C2(C)C)CC1=O (stereo unspecified)
outcome: inactive
//
Molecule: O=C(NC(=O)c1ccccc1Cl)Nc1ccc(OC(F)(F)F)cc1
outcome: inactive
//
Molecule: CC(C)C(Nc1ccc(C(F)(F)F)cc1Cl)C(=O)OC(C#N)c1cccc(Oc2ccccc2)c1 (stereo unspecified)
outcome: inactive
//
Molecule: O=C(CCCCl)c1ccc(F)cc1
outcome: inactive
//
Molecule: CC1(C)[C@H](/C=C2\CCSC2=O)[C@@H]1C(=O)OCc1coc(Cc2ccccc2)c1
outcome: inactive
//
Molecule: Cc1cnc2c(C(=O)O)c(Cl)ccc2c1
outcome: inactive
//
Molecule: CC(C)C(Br)C(=O)NC(N)=O (stereo unspecified)
outcome: inactive
//
Molecule: c1ccc2nc(N3CCNCC3)ccc2c1
outcome: inactive
//
Molecule: ClC1=C(Cl)[C@]2(Cl)[C@@H]3[C@H]4C[C@H]([C@@H]5O[C@H]45)[C@@H]3[C@@]1(Cl)C2(Cl)Cl
outcome: inactive
//
Molecule: CNC(=O)/C=C(\C)OP(=O)(OC)OC
outcome: inactive
//
Molecule: O=C(Nc1ccc(F)cc1F)c1cccnc1Oc1cccc(C(F)(F)F)c1
outcome: inactive
//
Molecule: N#Cc1c2ccccc2cc2ccccc12
outcome: inactive
//
Molecule: Cc1cc2c3c(c1)C(c1ccccc1)=N[C@@H](NC(=O)c1ccncc1)C(=O)N3CC2
outcome: inactive
//
Molecule: CC(=O)C(Cl)C(=O)N(C)C (stereo unspecified)
outcome: inactive
//
Molecule: Oc1ccc2[nH]cc(CCCCN3CC=C(c4ccccc4)CC3)c2c1
outcome: inactive
//
Molecule: CCC(C)c1cccc(C(C)CC)c1O (stereo unspecified)
outcome: inactive
//
Molecule: CC(Cc1ccc2c(c1)OCO2)NO (stereo unspecified)
outcome: inactive
//
Molecule: C1=CCC=C1
outcome: inactive
//
Molecule: COP(=S)(NC(C)C)Oc1ccc(C)cc1[N+](=O)[O-] (stereo unspecified)
outcome: inactive
//
Molecule: CC(O)C(=O)[O][Hg][c]1ccccc1 (stereo unspecified)
outcome: inactive
//
Molecule: O=C1C(Cl)=C(Cl)C(=O)C(Cl)=C1Cl
outcome: inactive
//
Molecule: Brc1cccc(-c2ccccc2)c1
outcome: inactive
//
Molecule: Clc1cc(Cl)c(-c2cc(Cl)c(Cl)cc2Cl)cc1Cl
outcome: inactive
//
Molecule: CC(Cl)CCl (stereo unspecified)
outcome: inactive
//
Molecule: c1ccc(N=NNc2ccccc2)cc1
outcome: inactive

Where do the numbers come from? From PubChem BioAssay (Tox21).
